experiment: clinical
Format: in vivo, human
assay.setup: human, in vivo, 6 mg
readout: Tmax (h)
Entry rule: numbers only, all in h.

For record O=C(O)c1nc2ccccc2n([C@H]2C[C@H]3CCC[C@@H](C2)N3C2CC3CCCC(C3)C2)c1=O (stereo partly shown) the listed Tmax is 1.9

----------
experiment: clinical
Assay type: in vivo, human
assay.setup: human, in vivo, 6 mg, CLr, Mean
readout: CL renal (mL/min)
Entry rule: numbers only, all in mL/min.

For record O=C(O)c1nc2ccccc2n([C@H]2C[C@H]3CCC[C@@H](C2)N3C2CC3CCCC(C3)C2)c1=O (stereo partly shown) [Compound (1C)] the listed CL renal is 198

// data source = patent US11576913B2
